FYI, the data here is from patent US20140171404A1.

SUBJECT OF TEST: Recombinant human ATX (Homo sapiens)
Construct: made in house; host or cells: human embryonic kidney (HEK) cells
ASSAY OVERVIEW: Assessing ATX inhibition: released choline, Amplex Red fluorescence
Assay type: biochemical
STATED CONDITIONS: ATX 10 nM, LPC 18:1 10 μM, pre-incubated with ATX at 37° C. for 20 minutes; Table 1, exemplified compounds; read-out: IC50
PROPERTY NAME: IC50 (nM)

O=C(NCCC1CCN(C(=O)/C=C/c2cc(Cl)cc(Cl)c2)CC1)c1c[nH]c(=O)o1 [Example 31]: 387
CN(CCC1CCN(C(=O)OCc2cc(Cl)cc(Cl)c2)CC1)C(=O)c1coc(=O)[nH]1 [Example 24]: 624
O=C(OCc1cc(Cl)cc(Cl)c1)N1CCC(CCCCCc2c[nH]nn2)CC1 [Example 68]: 318
O=C(CCCc1c[nH]c(=O)s1)NC1CCN(C(=O)OCc2cc(Cl)cc(Cl)c2)CC1 [Example 73]: 2
CN(C(=O)CCCc1c[nH]nn1)C1CCN(C(=O)OCc2cc(Cl)cc(Cl)c2)CC1 [Example 18]: 94

[I] N#Cc1cc(COC(=O)N2CCC(NC(=O)CCCc3c[nH]nn3)CC2)cc(C(F)(F)F)c1 [Example 66]
[II] O=C(NCCCN1CCN(C(=O)OCc2cc(Cl)cc(Cl)c2)CC1)c1c[nH]nn1 [Example 34]
Select the item with the higher value of IC50 from the options I and II listed. Lab note: record the label of whichever item you select.
II
